# STUDY SYSTEM: T1, apical domain of human CD71 (human, UniProt P02786 189-383, limits assumed)
# T1 construct: domain: apical domain; Screen 4 panned on human apical domains, the ELISA text says only 'apical domain'
# T1 sequence (P02786 189-383 limits assumed): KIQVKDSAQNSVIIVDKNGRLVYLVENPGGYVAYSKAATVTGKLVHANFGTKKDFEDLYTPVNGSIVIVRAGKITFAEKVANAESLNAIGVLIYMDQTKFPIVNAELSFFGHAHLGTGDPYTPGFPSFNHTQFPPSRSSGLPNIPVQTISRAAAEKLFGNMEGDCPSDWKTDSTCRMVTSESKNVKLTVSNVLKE
# PROCEDURE TEXT: primary ELISA, RLU over HSA
PARAMETER: Apical domain:HSA
One number for each entry.

Recorded Apical domain:HSA, per entry:
[
  {
    "BINDER": "CD71-binding FN3 domain of SEQ ID NO: 462 (designed binder) MLPAPKNLVVSRVTEDSARLSWTAPDAAFDSFFIGYLEPQPPGEAIHLQVPGSERSYDLTGLKPGTEYNVTIQGVKGGFPSVPLHARFTT",
    "PARAMETER": "Apical domain:HSA",
    "VALUE MEASURED": 88
  },
  {
    "BINDER": "CD71-binding FN3 domain of SEQ ID NO: 460 (designed binder) MLPAPKNLVVSRVTEDSARLSWTAPDAAFDSFFIGYLEPQPPGEAISLYVPGSERSYDQTGLKPGTEYNVTIQGVKGGFPSDPLSARFTT",
    "PARAMETER": "Apical domain:HSA",
    "VALUE MEASURED": 148
  },
  {
    "BINDER": "CD71-binding FN3 domain of SEQ ID NO: 494 (designed binder) MLPAPKNLVVSRVTEDSARLSWTTPDAAFDSFFIGYLEPQPPGEAISLYVPGSERSYDLTGLKPGTEYNVTIQGVKGGFPSMPLSAIFTT",
    "PARAMETER": "Apical domain:HSA",
    "VALUE MEASURED": 369
  },
  {
    "BINDER": "CD71-binding FN3 domain of SEQ ID NO: 479 (designed binder) MLPAPKNLVVSRVTEDSARLSWTAPDAAFDSFFIGYLEPQPPGEAINLWVPGSERSYDLTGLKPGTEYNVTIQGVKGGFPSTPLFAGFTT",
    "PARAMETER": "Apical domain:HSA",
    "VALUE MEASURED": 373
  }
]

Lab note: next binder to report on.
Query string: For the binder CD71-binding FN3 domain of SEQ ID NO: 519 (designed binder) MLPAPKNLVVSRVTEDSARLSWTAPDAAFDSFPIAYPEHLPPGEAIVLTVPGSERSYDLTGLKPGTEYPVNIRGVKGGFVSFPLSAIFTT , what Apical domain:HSA is on record?
Result string: 253
